Tested System: T1, HsLARP6(70-300) I260A (Homo sapiens, UniProt Q9BRS8 70-300, I260A)
T1 sequence: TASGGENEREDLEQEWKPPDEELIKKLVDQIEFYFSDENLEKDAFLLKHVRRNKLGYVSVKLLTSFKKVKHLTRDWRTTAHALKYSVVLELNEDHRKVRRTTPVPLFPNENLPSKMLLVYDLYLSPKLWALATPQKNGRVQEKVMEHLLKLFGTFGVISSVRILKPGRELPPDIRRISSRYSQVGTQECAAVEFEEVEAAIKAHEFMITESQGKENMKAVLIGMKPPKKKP
Test Description: ITC; ITC: 20 mM Tris pH 7.25, 100 mM KCl, 5 mM MgCl2, 1 mM DTT, 298 K; protein titrated into RNA
Experimental Conditions: protein: recombinant; tags: N-terminal His6 (TEV-cleavable); stem-loop with internal bulge
Measurement Name: pKd
// pKd here means minus log10 of the molar concentration (mol/L)

In: What value of measured pKd is listed for CCACAAAGAGUCUACAUGUCUAGGGUCUAGACAUGUUCAGCUUUGUGG (structured_RNA) [48 nt RNA (collagen alpha1(I) 5' UTR SL)] ?
Out: 7.59
